Molecular target: T1, Mature human CD3e(1-118)_FLAG-chLys_Avi (human)
T1 construct: also called human CD3 epsilon antigen
T1 sequence (chain, as listed by the source limits assumed): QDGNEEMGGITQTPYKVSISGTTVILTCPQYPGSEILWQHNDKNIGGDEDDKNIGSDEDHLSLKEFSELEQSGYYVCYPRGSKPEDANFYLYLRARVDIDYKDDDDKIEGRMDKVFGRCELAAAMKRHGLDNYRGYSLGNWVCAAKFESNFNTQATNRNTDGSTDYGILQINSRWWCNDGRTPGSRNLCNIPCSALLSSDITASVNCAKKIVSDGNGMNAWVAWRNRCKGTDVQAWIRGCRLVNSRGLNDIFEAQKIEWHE
Assay: BLI (Octet HTX); FabCys captured on Fab-specific sensor, CD3e antigen as analyte; 1:1 model
pKd: −log10 of the molar value.
// reported pKd per item

Binder | pKd
MAB-7_h_FabCys (Fab, V domains shown, Tagless disulfide-bridged human FabCys produced in HEK293 cells; also called MAB-7 Fab-Cys) VH: EVQLVESGGGLVQPGGSLRLSCAASGFTFKSYYMSWVRQAPGKGLEWVANIDYQSQHAYYAESVKGRFTISRDNAKNSLYLQMNSLRAEDTAVYYCARGYSAEFAHRSGLDVWGQGTLVTVSS VL: QSVLTQPPSASGTPGQRVTISCSGSSSNIGSNYVYWYQQLPGTAPKLLIYRNNQRPSGVPDRFSGSKSGTSASLAISGLRSEDEADYYCAAWDRHSHGAVFGGGTKLTVLG | 8.89
MAB-12_h_FabCys (Fab, V domains shown, Tagless disulfide-bridged human FabCys produced in HEK293 cells; also called MAB-12 Fab-Cys) VH: EVQLVESGGGLVQPGGSLRLSCAASGFTFRSHYMTWVRQAPGKGLEWVANIDYEGTRTYYAESVKGRFTISRDNAKNSLYLQMNSLRAEDTAVYYCARGYSAEFAHRSGLDVWGQGTLVTVSS VL: QSVLTQPPSASGTPGQRVTISCSGSSSNIGANYVYWYQQLPGTAPKLLIYRNNQRPSGVPDRFSGSKSGTSASLAISGLRSEDEADYYCAAWDRHSHGAVFGGGTKLTVLG | 9.52
MAB-9_h_FabCys (Fab, V domains shown, Tagless disulfide-bridged human FabCys produced in HEK293 cells; also called MAB-9 Fab-Cys) VH: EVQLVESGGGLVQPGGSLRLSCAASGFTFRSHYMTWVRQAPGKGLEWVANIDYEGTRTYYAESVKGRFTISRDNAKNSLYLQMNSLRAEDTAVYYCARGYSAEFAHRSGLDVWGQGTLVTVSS VL: QSVLTQPPSASGTPGQRVTISCSGSSSNIGINYVYWYQQLPGTAPKLLIYRNNIRPSGVPDRFSGSKSGTSASLAISGLRSEDEADYYCAAWDRHSHGAVFGGGTKLTVLG | 9.70
